organism: Mus musculus; experiment: Tested for Protection from Acetaminophen-Induced Liver Necrosis in Mice, Number of animals(mice) with liver necrosis was determined after 0 hour; assay type: functional
Label y when No. of animals with liver necrosis < 10; otherwise n.

molecule="O=C(O)C1CSCN1 (configuration not stated)" assigned_category=y
molecule=CC(=O)Nc1ccc(O)cc1 assigned_category=y
molecule=CC(=O)Nc1ccc(O)cc1.O=C(O)C1CSCN1 assigned_category=y
molecule=CC(=O)N[C@@H](CS)C(=O)O assigned_category=n
molecule="CC1N[C@H](C(=O)O)CS1 (some centres not stated)" assigned_category=n
molecule=CC(=O)Nc1ccc(O)cc1.CC1N[C@H](C(=O)O)CS1 assigned_category=n
molecule=CC(=O)N[C@@H](CS)C(=O)O.CC(=O)Nc1ccc(O)cc1 assigned_category=n
